System: HL-1
Assay: cardiomyocyte survival under oxidative or metabolic stress – cell-based, panel, H9c2 and HL-1, H2O2, 2-deoxyglucose, ATP luminescence, SAR follow-up (AID 651642)
Conditions: H9c2/HL-1 cardiomyocyte 2-deoxyglucose damage, run 1, with 2-deoxyglucose
Rule: measured IC50 below 4 µM gets T; anything equal to or greater than 4 µM gets F.

# TODO verify IC50 < 4 µM strictly for this compound: "COc1cccc(CNC(=O)CNC(=O)c2cc(-c3cc(OC)c(OC)c(OC)c3)nc3ccccc23)c1"
F

Does this compound meet the criterion IC50 < 4 µM? "COc1cc(-c2cc(C(=O)Nc3cccc(C(=O)NC4CC4)c3)c3ccccc3n2)cc(OC)c1OC"
T

State whether 4 µM exceeds IC50 recorded for "COc1cc(-c2cc(C(=O)Nc3cccc(C(C)=O)c3)c3cc(Br)ccc3n2)cc(OC)c1OC" .
F

Is 4 µM strictly greater than the compound's reported IC50? compound: COc1ccc2c(c1OC)C(=O)N1c3ccccc3C(=O)N(Cc3cccc(C)c3)C21 (centres undefined)
F

I wonder whether "CCOC(=O)c1ccccc1NC(=O)c1cc(-c2cc(OC)c(OC)c(OC)c2)nc2ccccc12" has IC50 below 4 µM. Can you tell?
T

API: query returns whether the compound falls strictly under 4 µM in IC50. Query: "COC(=O)CNC(=O)c1cccc(NC(=O)c2cc(-c3cc(OC)c(OC)c(OC)c3)nc3ccccc23)c1"
T

Please determine if "COc1cc(-c2cc(C(=O)Nc3cccc(-c4nn[nH]n4)c3)c3ccccc3n2)cc(OC)c1OC" is below 4 µM in terms of IC50.
F

Consider "COc1cc(-c2cc(C(=O)NCC(=O)Nc3cccc(C(C)=O)c3)c3cc(Br)ccc3n2)cc(OC)c1OC" . Does its IC50 lie strictly below 4 µM?
T

Threshold test, IC50 < 4 µM: "COc1cc(-c2cc(C(=O)Nc3cccc(C(N)=O)c3)c3ccccc3n2)cc(OC)c1OC"
F

// provenance: PubChem BioAssay AID651642
